test: NCI Yeast Anticancer Drug Screen. Data for the sgs1 mgt1 strain (AID 161);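 further: 0% = growth of cultures given vehicle only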; settings: S. cerevisiae sgs1 mgt1 strain, at 50.0 µM
About 79,000 compounds went through this panel and 15% of them were active in at least one assay; those are over-represented in the sample as a whole. Calls of active or inactive are those of the source. No stated cut-off is given here; in the data, active means growth inhibition above about 70%; inactive means the rest.
Form entry, call: pick from active, inactive

Record lookup: outcome of this test for "O=C(C#Cc1ccccc1)[O][Sn]([c]1ccccc1)([c]1ccccc1)[c]1ccccc1" ?
active

###

growth inhibition by entry:
test: NCI Yeast Anticancer Drug Screen. Data for the rad50 strain (AID 155);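 further: 0% = growth of vehicle-only cultures of the same strain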; conditions: S. cerevisiae rad50 strain growth inhibition; at 50.0 µM; active compounds read high
About 79,000 compounds went through this panel and 15% of them were active in at least one assay; those are over-represented in the sample as a whole.
State just the number; it will be interpreted in %.

Field: example entries. Status: answers known.
COMPOUND: O=S(O)CCCSSSCCCS(=O)O
growth inhibition, %: 26.1
--
COMPOUND: ClCCOCc1ccc(Cl)cc1Cl
growth inhibition, %: 24.6
--
COMPOUND: CC(=O)OCC1OC(n2cnc(C(N)=S)c2N)C(OC(C)=O)C1OC(C)=O (stereo not drawn)
growth inhibition, %: 2.3
--
COMPOUND: O=C1c2ccccc2C(=O)c2c(Nc3ccc4c5c(cccc35)C(=O)c3ccccc3-4)cccc21
growth inhibition, %: 23.1
--
COMPOUND: COc1ccc2c(c1)C1CCCCC1SCC2=O (stereo not drawn)
growth inhibition, %: 1

I would be grateful if you could share the reported growth inhibition for "O=C(CSSCC(=O)Nc1ccccc1O)Nc1ccccc1O" .
-11.2

I would be grateful if you could share the reported growth inhibition for "O=C(Nc1cc(S(=O)(=O)O)cc2cc(S(=O)(=O)O)c(N=Nc3cc(Nc4nc(Cl)nc(Nc5ccc(S(=O)(=O)O)cc5)n4)ccc3S(=O)(=O)O)c(O)c12)c1ccccc1" .
17.9

I would be grateful if you could share the reported growth inhibition for COC1c2ccccc2CC1(C)C (stereo not drawn) .
13.8

I would be grateful if you could share the reported growth inhibition for "Cc1ccncc1C#N" .
5

I would be grateful if you could share the reported growth inhibition for "O=C(/C=C(\Br)c1ccccc1)c1ccccc1" .
99.3

I would be grateful if you could share the reported growth inhibition for "O=C(O)CCCC1=C2CCC(=O)C=C2CCC1" .
-15.8

I would be grateful if you could share the reported growth inhibition for "O=C(Nc1cccc2ccccc12)O/N=C/c1ccccn1" .
-9.3

I would be grateful if you could share the reported growth inhibition for O=S(=O)(O)C(O)c1ccccc1 (stereo not drawn) .
1.25

###

test: NCI Yeast Anticancer Drug Screen. Data for the rad50 strain (AID 155);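 further: 0% = growth of vehicle-only cultures of the same strain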; conditions: S. cerevisiae rad50 strain growth inhibition; at 50.0 µM; active compounds read high
This is part of a sample that, as a whole, favours compounds with a hit. Of some 79,000 tested, about 15% had one in any assay.
growth inhibition by entry:
State just the number; it will be interpreted in %.

COMPOUND: O=C1c2ccccc2C(=O)N1N1C(=O)c2ccccc2C1=O
growth inhibition (%): 3.95
--
COMPOUND: COC(=O)C(C)CC(C)C(=O)OC (stereo not given)
growth inhibition (%): 19.6
--
COMPOUND: CC1(C)OC(C(F)(F)F)(C(F)(F)F)c2cc(C(C)(C)C)ccc2S1
growth inhibition (%): -26.9

Here is the next item to consider.
I would be grateful if you could share the reported growth inhibition for OCCCCC1COC(c2ccccc2)O1 (stereo not given) .
2.55
